// Efficacy lookup, one value per entry
- TESTED SYSTEM: Ecdysone receptor (Drosophila melanogaster) (UniProt P34021+P20153)
- MEASUREMENT PROTOCOL: Agonist activity at ecdysone receptor in Drosophila melanogaster S2 cells at 100 uM after 24 hr by luciferase reporter gene assay relative to 20-hydroxyecdysone
- Format: cell-based

SMI	UNITS LABEL	Efficacy
O=C(NN(CC1CCCCC1)C(=O)c1ccccc1)c1ccccc1	%	1
COc1cccc(C(=O)NN(C(=O)c2ccccc2Cl)C(C)(C)C)c1C	%	77
COc1ccc(C(=O)NN(C(=O)c2ccccc2Cl)C(C)(C)C)cc1	%	112
CCc1ccc(C(=O)NN(C(=O)c2ccccc2Cl)C(C)(C)C)cc1	%	71
CCOc1cccc(C(=O)NN(C(=O)c2cc(C)cc(C)c2)C(C)(C)C)c1C	%	71
CCc1ccc(C(=O)NN(C(=O)c2cccc3ccccc23)C(C)(C)C)cc1	%	53
CC(C)(C)N(NC(=O)c1ccccc1)C(=O)c1ccccc1	%	62
CC(C)(C)N(NC(=O)c1ccccc1)C(=O)c1ccccc1C(F)(F)F	%	63
Cc1cc(C)c(Cl)c(C(=O)N(NC(=O)c2ccccc2)C(C)(C)C)c1	%	2
Cc1ccc(C(=O)NN(C(=O)c2ccccc2Cl)C(C)(C)C)c(C)c1	%	43
